- System: cell surface PrP on N2a cells
- Type: cell-based
QUANTITY_NAME: reduction of cell surface PrP, confirmation by secondary screening

- STRUCTURE_AS_SMILES: "CC[C@@]1([C@@H]2O[C@@H]([C@H]3O[C@@](O)(CO)[C@H](C)C[C@@H]3C)C[C@@H]2C)CC[C@H]([C@]2(C)CC[C@]3(C[C@H](O)[C@@H](C)[C@@H]([C@@H](C)[C@@H](OC)[C@H](C)C(=O)O)O3)O2)O1"
  ASSAY_VALUE: "active"
- STRUCTURE_AS_SMILES: "CC[C@H]1CN2CCc3cc(OC)c(OC)cc3[C@@H]2C[C@@H]1C[C@H]1NCCc2cc(OC)c(OC)cc21"
  ASSAY_VALUE: "active"
- STRUCTURE_AS_SMILES: "CCCCCCCCCCCCCCCC[N+](C)(C)C"
  ASSAY_VALUE: "active"
